List of Kd values.
TARGET_DESC: T1, human vascular endothelial growth factor receptor-2 Fc chimera (KDR-Fc) (human, UniProt P35968 20-764)
T1 construct: range 1-764; also called human VEGFR-2; not shown: human IgG1 Fc
PROTOCOL_NOTES: radioactive equilibrium binding assay, KDR-Fc
MEASURE_NAME: Kd (nM)

INSERT INTO assay_data (binder, measure_name, value_observed) VALUES
  ('E26 (designed binder, 10Fn3 clone, Del 1-8) EVVAATPTSLLISWRHPHFPTRYYRITYGETGGNSPVQEFTVPLQPPTATISGLKPGVDYTITGYAVTVERNGRELMTPISINYRT', 'Kd', 1.66),
  ('E29 (designed binder, 10Fn3 clone, Del 1-8) EVVAATPTSLLISWRHPHFPTRYYRITYGETGGNSPVQEFTVPLQPPTATISGLKPGVDYTITGYAVTVERNGRVLMTPISINYRT', 'Kd', 1.51),
  ('E6 (designed binder, 10Fn3 clone, Del 1-8) EVVAATPTSLLISWRHPHFPTRYYRITYGETGGNSPVQEFTVPLQPPTATISGLKPGVDYTITGYAVTDGWNGRLLSIPISINYRT', 'Kd', 0.35),
  ('E9 (designed binder, 10Fn3 clone, Del 1-8) EVVAATPTSLLISWRHPHFPTRYYRITYGETGGNSPVQEFTVPLQPPTATISGLKPGVDYTITGYAVTEERNGRTLRTPISINYRT', 'Kd', 2.37),
  ('E18 (designed binder, 10Fn3 clone, Del 1-8) EVVAATPTSLLISWRHPHFPTRYYRITYGETGGNSPVQEFTVPLQPPTATISGLKPGVDYTITGYAVTVERNGRELNTPISINYRT', 'Kd', 1.2),
  ('E3 (designed binder, 10Fn3 clone, Del 1-8) EVVAATPTSLLISWRHPHFPTRYYRITYGETGGNSPVQEFTVPLQPPTATISGLKPGVDYTITGYAVTDGRNDRKLMVPISINYRT', 'Kd', 0.96),
  ('E28 (designed binder, 10Fn3 clone, Del 1-8) EVVAATPTSLLISWRHPHFPTRYYRITYGETGGNSPVQEFTVPLQPPTATISGLKPGVDYTITGYAVTLERNGRELMVPISINYRT', 'Kd', 1.63);
